Measured 4H2 Percent cross-immunoreactivity values are reported for all entries that follow.
- System: 4H2 mAb
- EXPERIMENT SUMMARY: Cross-reactivity of the 4H2 mAb (50% displacement of bound MBG)
- Type: binding, mouse
- CONDITION PARAMETERS: amount of MBG for 50% displacement versus amount of cross-reactant

MOLECULE | 4H2 Percent cross-immunoreactivity / %
C[C@]12CC[C@H](OC(=O)CCCCCCC(=O)N[C@@H](CCCN=C(N)N)C(=O)O)C[C@@]1(O)CC[C@@H]1[C@@H]2CC[C@]2(C)[C@@H](c3ccc(=O)oc3)C[C@H]3O[C@]132 [Marinobufotoxin] | 55
C[C@@H]1O[C@@H](O[C@H]2C[C@@H](O)[C@]3(CO)[C@H]4[C@H](O)C[C@]5(C)[C@@H](C6=CC(=O)OC6)CC[C@]5(O)[C@@H]4CC[C@]3(O)C2)[C@H](O)[C@H](O)[C@H]1O [Ouabain] | 0.03
C[C@H]1O[C@@H](O[C@H]2[C@@H](O)C[C@H](O[C@H]3[C@@H](O)C[C@H](O[C@H]4CC[C@@]5(C)[C@H](CC[C@@H]6[C@@H]5C[C@@H](O)[C@]5(C)[C@@H](C7=CC(=O)OC7)CC[C@]65O)C4)O[C@@H]3C)O[C@@H]2C)C[C@H](O)[C@@H]1O [Digoxin] | 0.03
CC(=O)O[C@H]1[C@H]2O[C@]23[C@@H]2CC[C@@H]4C[C@@H](O)CC[C@]4(C)[C@H]2CC[C@]3(C)[C@H]1c1ccc(=O)oc1 [Cinobufagin] | 0.11

====

- Test system: 3E9 mAb
- EXPERIMENT SUMMARY: Cross-reactivity of the 3E9 mAb (50% displacement of bound MBG)
- Type: binding, mouse
- CONDITION PARAMETERS: amount of MBG for 50% displacement versus amount of cross-reactant
Measured Percent cross-immunoreactivity values are reported for all entries that follow.
ENDPOINT LABEL: Percent cross-immunoreactivity (%)

MOLECULE | QUAL | EXPERIMENTAL VALUE
C[C@H]1O[C@@H](O[C@H]2[C@@H](O)C[C@H](O[C@H]3[C@@H](O)C[C@H](O[C@H]4CC[C@@]5(C)[C@H](CC[C@@H]6[C@@H]5C[C@@H](O)[C@]5(C)[C@@H](C7=CC(=O)OC7)CC[C@]65O)C4)O[C@@H]3C)O[C@@H]2C)C[C@H](O)[C@@H]1O | = | 1.8
CC(=O)S[C@@H]1CC2=CC(=O)CC[C@]2(C)[C@H]2CC[C@@]3(C)[C@@H](CC[C@@]34CCC(=O)O4)[C@H]12 | = | 0.22
CC(=O)O[C@H]1[C@H]2O[C@]23[C@@H]2CC[C@@H]4C[C@@H](O)CC[C@]4(C)[C@H]2CC[C@]3(C)[C@H]1c1ccc(=O)oc1 | = | 1.4
C[C@]12C[C@@H](O)[C@H]3[C@@H](CC[C@]4(O)C[C@@H](O)C[C@@H](O)[C@]34CO)[C@@]1(O)CC[C@@H]2C1=CC(=O)OC1 | < | 0.01
CC(=O)[C@H]1CC[C@H]2[C@@H]3CCC4=CC(=O)CC[C@]4(C)[C@H]3CC[C@]12C | = | 0.3
CC(=O)O[C@H]1[C@H]2O[C@]23[C@@H]2CC[C@]4(O)C[C@@H](O)CC[C@]4(C)[C@H]2CC[C@]3(C)[C@H]1c1ccc(=O)oc1 | = | 4
C[C@]12CC[C@H](O)C[C@@]1(O)CC[C@@H]1[C@@H]2CC[C@]2(C)[C@@H](c3ccc(=O)oc3)CC3O[C@@]312 (stereo partly drawn) | = | 100
C[C@]12C[C@H](O)[C@H]3[C@@H](CCC4=CC(=O)CC[C@@]43C)[C@@H]1CC[C@@H]2C(=O)CO | < | 0.01
C[C@]12C=CC(=O)C=C1CC[C@@H]1[C@@H]2C(=O)C[C@@]2(C)[C@H]1CC[C@]2(O)C(=O)CO | < | 0.01

====

- EXPERIMENT SUMMARY: Experimental uremic cardiomyopathy: partial nephrectomy, MBG infusion, immunization against MBG-BSA
- CONDITION PARAMETERS: male, Sprague-Dawley, rat, plasma, other: infusion with an osmotic minipump, 10 μg/kg per day

COMPOUND | UNIT TEXT | concentration at 4 weeks
C[C@]12CC[C@H](O)C[C@@]1(O)CC[C@@H]1[C@@H]2CC[C@]2(C)[C@@H](c3ccc(=O)oc3)CC3O[C@@]312 (stereo partly shown) | nM | 0.546

====

- Tested on: 4H2 mAb
- EXPERIMENT SUMMARY: Cross-reactivity of the 4H2 mAb (50% displacement of bound MBG)
- Type: binding, mouse
- CONDITION PARAMETERS: amount of MBG for 50% displacement versus amount of cross-reactant
- Excerpt: The percent cross-reactivity of the 3E9, 4G4 and 4H2 mAbs was defined as the ratio of the amount of MBG required to displace 50% of maximally bound MBG from the particular anti-MBG mAb, versus the amount of the cross-reactant to give the same 50% displacement. The binding specificities of the 3E9 mAb for a panel of steroids are shown in Table I; those for the 4112 and 4G4 mAbs are shown in Table II.
ENDPOINT LABEL: 4H2 Percent cross-immunoreactivity

COMPOUND | EXPERIMENTAL VALUE
CC(=O)O[C@H]1[C@H]2O[C@]23[C@@H]2CC[C@]4(O)C[C@@H](O)CC[C@]4(C)[C@H]2CC[C@]3(C)[C@H]1c1ccc(=O)oc1 | 58%
C[C@]12CC[C@H](O)C[C@@]1(O)CC[C@@H]1[C@@H]2CC[C@]2(C)[C@@H](c3ccc(=O)oc3)CC3O[C@@]312 (stereo partly shown) | 100%
C[C@]12CC[C@H](O)C[C@H]1CC[C@@H]1[C@@H]2CC[C@]2(C)[C@@H](c3ccc(=O)oc3)CC[C@]12O | 0.07%
C[C@]12CC[C@H](O)C[C@H]1CC[C@@H]1[C@@H]2CC[C@]2(C)[C@@H](c3ccc(=O)oc3)C[C@H]3O[C@]132 | 0.2%

====

- Tested on: 3E9 mAb
- EXPERIMENT SUMMARY: Cross-reactivity of the 3E9 mAb (50% displacement of bound MBG)
- Type: binding, mouse
- CONDITION PARAMETERS: amount of MBG for 50% displacement versus amount of cross-reactant
Could you mark each record true (1) if its Percent cross-immunoreactivity falls strictly under 0.7%, and false (0) if it equals or exceeds it?

MOLECULE | QUALITATIVE LABEL
C[C@@H]1O[C@@H](O[C@H]2C[C@@H](O)[C@]3(CO)[C@H]4[C@H](O)C[C@]5(C)[C@@H](C6=CC(=O)OC6)CC[C@]5(O)[C@@H]4CC[C@]3(O)C2)[C@H](O)[C@H](O)[C@H]1O [Ouabain] | true (1)
C[C@]12CC[C@H](OC(=O)CCCCCCC(=O)N[C@@H](CCCN=C(N)N)C(=O)O)C[C@@]1(O)CC[C@@H]1[C@@H]2CC[C@]2(C)[C@@H](c3ccc(=O)oc3)C[C@H]3O[C@]132 [Marinobufotoxin] | false (0)
C[C@@H]1O[C@@H](O[C@@H]2C=C3CC[C@@H]4[C@H](CC[C@]5(C)[C@@H](c6ccc(=O)oc6)CC[C@]45O)[C@@]3(C)CC2)[C@H](O)[C@H](O)[C@H]1O [Proscillaridin] | false (0)
C[C@]12CC[C@H](O)C[C@H]1CC[C@@H]1[C@@H]2CC[C@]2(C)[C@@H](c3ccc(=O)oc3)CC[C@]12O [Bufalin] | true (1)

====

- Test system: 4G4 mAb
- EXPERIMENT SUMMARY: Cross-reactivity of the 4G4 mAb (50% displacement of bound MBG)
- Assay type: binding, mouse
- CONDITION PARAMETERS: amount of MBG for 50% displacement versus amount of cross-reactant
Measured 4G4 Percent cross-immunoreactivity values are reported for all entries that follow.

COMPOUND | 4G4 Percent cross-immunoreactivity / %
C[C@H]1O[C@@H](O[C@H]2[C@@H](O)C[C@H](O[C@H]3[C@@H](O)C[C@H](O[C@H]4CC[C@@]5(C)[C@H](CC[C@@H]6[C@@H]5C[C@@H](O)[C@]5(C)[C@@H](C7=CC(=O)OC7)CC[C@]65O)C4)O[C@@H]3C)O[C@@H]2C)C[C@H](O)[C@@H]1O [Digoxin] | 0.003
C[C@]12CC[C@H](O)C[C@H]1CC[C@@H]1[C@@H]2CC[C@]2(C)[C@@H](c3ccc(=O)oc3)C[C@H]3O[C@]132 [Resibufagenin] | 0.6
C[C@]12CC[C@H](O)C[C@H]1CC[C@@H]1[C@@H]2CC[C@]2(C)[C@@H](c3ccc(=O)oc3)CC[C@]12O [Bufalin] | 0.08
C[C@@H]1O[C@@H](O[C@H]2C[C@@H](O)[C@]3(CO)[C@H]4[C@H](O)C[C@]5(C)[C@@H](C6=CC(=O)OC6)CC[C@]5(O)[C@@H]4CC[C@]3(O)C2)[C@H](O)[C@H](O)[C@H]1O [Ouabain] | 0.004
CC(=O)O[C@H]1[C@H]2O[C@]23[C@@H]2CC[C@]4(O)C[C@@H](O)CC[C@]4(C)[C@H]2CC[C@]3(C)[C@H]1c1ccc(=O)oc1 [Cinobufotalin] | 43
C[C@]12CC[C@H](OC(=O)CCCCCCC(=O)N[C@@H](CCCN=C(N)N)C(=O)O)C[C@@]1(O)CC[C@@H]1[C@@H]2CC[C@]2(C)[C@@H](c3ccc(=O)oc3)C[C@H]3O[C@]132 [Marinobufotoxin] | 44
CC(=O)O[C@H]1[C@H]2O[C@]23[C@@H]2CC[C@@H]4C[C@@H](O)CC[C@]4(C)[C@H]2CC[C@]3(C)[C@H]1c1ccc(=O)oc1 [Cinobufagin] | 0.07
C[C@]12CC[C@H](O)C[C@@]1(O)CC[C@@H]1[C@@H]2CC[C@]2(C)[C@@H](c3ccc(=O)oc3)CC3O[C@@]312 (some centres unmarked) [MBG] | 100
